EXPERIMENT NOTES: inhibitors of mutant huntingtin aggregation, primary screen, imaging, exon1htt(103Q)mCFP cells, high-content imaging (AID 483);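 note: compound exposure lasted 3 days before fixation; percent of the per-plate median nuclei count of sample wells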
STUDY CONDITIONS: exon1htt(103Q)mCFP cell line, aggregate imaging, at 2 µM; measured here: cell count, toxicity

# MOLECULE, nuclei count / %
rows = [
    ("CCOC(=O)C1=C(C)NC(C)=C(C(=O)OCC)C1C(=O)OC1CCOC1=O (centres undefined)", 112),
    ("Cn1nc(CC(=O)Nc2ccc(N3CCN(C(=O)OC(C)(C)C)CC3)cc2)c2ccccc2c1=O", 91.2),
    ("O=c1c[n+]([O-])c2ccccc2n1OCc1c(F)cccc1F", 87.6),
    ("c1ccc(CC2CCN(C(c3cccs3)c3nnnn3C3CCCC3)CC2)cc1 (centres undefined)", 108),
    ("Cc1ccc(S(=O)(=O)NC(C)C(=O)Nc2ccc(C(N)=O)cc2)cc1 (centres undefined)", 77.4),
    ("CCc1ccccc1NC(=O)c1ccoc1C", 97.9),
    ("Cc1noc(C)c1C(=O)Nc1ccc(Cl)cc1C(F)(F)F", 99.5),
    ("Cc1ccccc1-n1nc(C)c2cc(C(=O)NCc3cccnc3)sc21", 116),
    ("COc1ccc(-c2nnc(SCC(=O)Nc3sc4c(c3C#N)CCC4)n2CC2CCCO2)cc1 (centres undefined)", 103),
    ("CCOC(=O)c1oc2ccccc2c1CSc1nnnn1-c1ccc(C)cc1", 88.1),
    ("Cc1nnc(SCC(=O)Nc2sc3c(c2C#N)CCCC3)[nH]c1=O", 114),
    ("Cn1c(C(=O)Nc2ccc3c(c2)OCO3)cc2c(=O)n(C)c3ccccc3c21", 104),
    ("CN(C)/C=C1\\N=C(c2ccc3c(c2)OCO3)OC1=O", 104),
    ("Cc1cc(C)cc(C(=O)N2CCC(C(N)=O)CC2)c1", 109),
    ("CCc1cc(C(=O)OC)c(NC(=O)CCC(=O)O)s1", 117),
    ("COc1cccc(-c2cc(C(=O)N3CCCCCC3)no2)c1", 82.4),
    ("CC1CCN(C(=O)CN2C(=O)C(C)(C)Oc3ccc(C(=O)NC4CCCC4)cc32)CC1", 84.4),
    ("O=C(c1ccc2c(c1)[nH]c(=S)n1c3ccccc3nc21)N1CCN(c2ncccn2)CC1", 105),
    ("CCOc1ccc(NC(=O)CN(c2cc(C)cc(C)c2)S(=O)(=O)c2c(C)noc2C)cc1", 99.2),
    ("COC(=O)c1c(NC(=O)CSc2nnnn2C)sc(C)c1C", 95.6),
    ("c1ccc(C2(Cn3ccc4ccccc43)OCCO2)cc1", 109),
    ("COc1ccc(C(=O)NCCc2nnc(SCc3nc4ccccc4c(=O)[nH]3)n2C)cc1", 101),
    ("COc1ccc(-c2nnc(SCC(=O)NC(=O)NCc3ccco3)o2)cc1", 102),
    ("COc1ccc(Cn2nnnc2C(c2ccccn2)N2CCN(c3cc(Cl)ccc3C)CC2)cc1 (centres undefined)", 112),
    ("CCC1CCCCN1CCCNC(=O)CC1Oc2ccc(C)cc2NC1=O (centres undefined)", 105),
    ("O=C(CSc1nnnn1-c1ccc(Cl)cc1)NC(=O)Nc1ccc2c(c1)OCCO2", 84.7),
    ("CC1CCCCC1NC(=O)Cn1nnc(-c2ccc(Cl)cc2)n1 (centres undefined)", 92.4),
    ("COc1ccc(-c2cc3n(n2)CCc2nc4ccccc4n2-3)cc1", 123),
    ("O=C(OCC(=O)N1CCCC1)c1ccccc1OCc1ccccc1", 95.3),
]

###

EXPERIMENT NOTES: inhibitors of poly I:C-induced TLR3 signaling, primary screen, cell-based, poly I:C stimulus, luciferase, 10K MLSCN set (AID 602277)
STUDY CONDITIONS: HEK293-TLR3 RL24 IRF3 luciferase reporter, at 10 µM, stronger effect = higher value

# COMPOUND, inhibition [%]
rows = [
    ("C=COCCNC(=O)Nc1ccc(Cl)c(Cl)c1", -41.6),
    ("CCSc1nnc2c(n1)OC=Nc1ccc(Br)cc1-2", 20.5),
    ("CCOC(=O)C1CCN(c2c(NC3CCCc4ccccc43)c(=O)c2=O)CC1 (stereo unspecified)", 29.9),
    ("CCOc1cc(C(=O)Nc2ncccn2)cc(OCC)c1OCC", 27.2),
    ("CCc1ccc(CN(C)CCc2ccccn2)cc1", 7.65),
    ("Fc1ccccc1Cn1nnc2c(-n3ccnc3)ncnc21", -13.8),
    ("CCOC(=O)N1CCN(C(=O)c2ccc(CS(=O)(=O)c3c(Cl)cccc3Cl)o2)CC1", 21.2),
    ("COc1ccc(C(=O)NCC(=O)NC2=NCCS2)cc1", 28.4),
    ("COc1ccc(-c2ccc(-c3noc(-c4ccccc4OC)n3)c(OC)n2)cc1", -36.2),
    ("CCOc1ccc(NC(=O)CN(C)CC(=O)NC2CCCc3ccccc32)cc1OCC (stereo unspecified)", 26.6),
    ("Cc1c(C#N)c2ncnc(-c3ccccc3)c2n1-c1ccccc1", 34.5),
    ("OCc1cn(-c2ccccc2)nc1-c1ccc2c(c1)OCCO2", -135),
    ("Cn1c(=O)cc(OCCCC(=O)Nc2ccc3c(c2)OCCO3)c2ccccc21", -1.3),
    ("COc1ccc(OC)c(NC(=O)C2C3CC4OC(=O)C2C4C3)c1 (stereo unspecified)", 18.6),
    ("c1ccc(-n2c(Sc3cnccn3)nnc2-c2cccs2)cc1", 12.5),
    ("COCCNC(=O)C(c1ccc(O)cc1)N(Cc1ccco1)C(=O)CCC(=O)Nc1nccs1 (stereo unspecified)", 14.7),
]

###

EXPERIMENT NOTES: inhibitors of TNFa-induced NFkB p65 translocation, primary screen, imaging, HUVEC, MLSMR starter and 10KST1 sets (AID 438);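 note: compound added about 3h40 before a 20 min TNFalpha stimulation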
STUDY CONDITIONS: HUVEC TNFa-induced p65 nuclear translocation; measured here: nuclei count (cytotoxicity indicator), at 2.08 µM
Listed next: entries and their corresponding cell count.
TEST READOUT: cell count

# MOLECULE, REPORTED MEASUREMENT
measured = [
    ("CCOc1ccc(-c2nc(C#N)c(N3CCN(CC)CC3)o2)cc1", 416),
    ("Cc1nnc(N2CCOCC2)c2ccccc12", 590),
    ("CCOC(=O)C1=C(O)CCn2c1nc1ccccc12", 376),
    ("CSc1nc2sc3c(c2c2nncn12)CCC3", 595),
    ("O=C(c1c(F)cccc1F)N(Cc1ccccn1)C1CCCC1", 521),
    ("CCOC(=O)c1c(CN2CCN(CCO)CC2)n(C)c2cc(Br)c(OC)cc12", 380),
    ("Cc1oc(-c2ccc(Cl)cc2)cc1-c1nn2c(-c3ccoc3C)nnc2s1", 644),
    ("N#CC1=C(SCC(=O)NC2CCCCC2)NC(=O)CC1c1ccco1 (stereo not drawn)", 709),
    ("Cc1nn(CC(N)=O)c(=O)c2ccccc12", 579),
    ("N#Cc1cc(Oc2cccc3cccnc23)c(-n2nnc3ccccc32)cc1C#N", 527),
    ("O=C(NCc1ccccc1)C1C(=O)N(Cc2ccccc2)C(=O)C1C1(O)CCCC1 (stereo not drawn)", 653),
    ("CCCOc1ccc(NC2=CC(=O)CC(C)(C)C2)cc1", 342),
    ("CCOC(=O)c1c(C)n(C)c2ccc(O)c(CN3CCCCC3)c12", 616),
    ("Cc1onc(-c2ccccc2Cl)c1C(=O)Nc1cccnc1", 286),
    ("COc1cccc(C(c2nnnn2CCc2ccccc2)N2CCN(c3ccccc3)CC2)c1OC (stereo not drawn)", 605),
    ("CCC(Oc1ccccc1)C(=O)Nc1ccccc1OC (stereo not drawn)", 352),
    ("O=S(=O)(c1ccccc1)N1CCN(S(=O)(=O)c2ccccc2)C1", 281),
    ("COc1ccc(OC)c(C(=O)CSc2nnc(-c3ccc(OC)c(OC)c3)o2)c1", 399),
    ("CCc1ccc(NC(=O)CS(=O)CC(=O)NCC2OCCc3ccccc32)cc1 (stereo not drawn)", 698),
    ("CC1Cc2nc(SCC(=O)Nc3ccc4c(c3)OCO4)n(-c3ccc(F)cc3)c(=O)c2S1 (stereo not drawn)", 680),
    ("Cc1cc2nncn2c(Cc2ccccc2)n1", 407),
    ("Cn1c(=O)c2c(nc(CN3CCCCC3)n2CCCc2ccccc2)n(C)c1=O", 431),
    ("CCCCOC(=O)c1[nH]c2c(c1C)C(=O)CC(c1cc(OC)c(OC)c(OC)c1)C2 (stereo not drawn)", 546),
    ("CCN(CC)CCCN1C(=O)C(O)=C(C(C)=O)C1c1cccc(OC)c1 (stereo not drawn)", 468),
    ("Cn1c(CSc2ncn[nH]2)nc2ccccc21", 537),
    ("COC(=O)c1ccccc1NC(=O)C1CC=CCC1C(=O)O (stereo not drawn)", 373),
    ("CCOC(=O)N1CCC(c2cc(=O)n3[nH]cc(C(=O)OC)c3n2)CC1", 534),
    ("CCOC(=O)c1c(N)sc(C(=O)N2CCOCC2)c1C", 314),
    ("CCCCOc1ccc(C(=O)N2CCCC2C(=O)O)cc1 (stereo not drawn)", 675),
    ("CCOC(=O)c1c(C)n(C)c2ccc(OC)c(NC(=O)CN3CCC4(CC3)OCCO4)c12", 690),
    ("Cc1nnc(NC(=O)CSc2nc3c(c(=O)n2C)SC(C)C3)s1 (stereo not drawn)", 734),
    ("Cc1ccc2cc3cc(C(=O)N4CC(C)CC(C)C4)oc3nc2c1 (stereo not drawn)", 654),
    ("O=C(Nc1ccccn1)N1CCOCC1", 319),
]

All figures here come from PubChem BioAssay.
